Just for reference, patent US20260250371A1 is where these values come from.

Assignment: determine reported Ratio (variant antibody KD/burosumab KD) for the given binders.
MEASUREMENT_TARGET: T1, recombinant human FGF23 (R179Q) (human, UniProt Q9GZV9 25-251)
T1 construct: also called rhFGF23(R179Q); hFGF23(R179Q)
T1 sequence (looked up): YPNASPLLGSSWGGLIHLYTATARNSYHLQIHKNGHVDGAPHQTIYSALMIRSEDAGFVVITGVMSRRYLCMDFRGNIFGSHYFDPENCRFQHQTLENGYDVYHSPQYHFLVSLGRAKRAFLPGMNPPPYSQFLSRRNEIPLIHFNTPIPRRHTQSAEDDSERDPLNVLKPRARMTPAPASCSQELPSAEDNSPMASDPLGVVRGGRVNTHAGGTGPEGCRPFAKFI
METHOD_NOTES: SPR, antibody captured on hIgG chip, rhFGF23(R179Q) analyte
Answers are plain numbers.

# example entries with known answers
UGX175 (antibody, human IgG1, kappa, V domains shown, also called HC:A103S; A103S) VH: QVQLVQSGAEVKKPGASVKVSCKASGYTFTNHYMHWVRQAPGQGLEWMGIINPISGSTSNAQKFQGRVTMTRDTSTSTVYMELSSLRSEDTAVYYCARDIVDSFDFWGQGTMVTVSS VL: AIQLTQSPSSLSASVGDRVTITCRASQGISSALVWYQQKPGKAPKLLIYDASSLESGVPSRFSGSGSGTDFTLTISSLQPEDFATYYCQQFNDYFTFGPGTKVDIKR = 3
UGX201 (antibody, human IgG1, kappa, V domains shown, also called HC:S59E, LC:N92F; S59E/N92F) VH: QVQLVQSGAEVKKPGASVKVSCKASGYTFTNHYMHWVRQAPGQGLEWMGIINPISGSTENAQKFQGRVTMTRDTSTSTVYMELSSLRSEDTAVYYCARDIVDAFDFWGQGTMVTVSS VL: AIQLTQSPSSLSASVGDRVTITCRASQGISSALVWYQQKPGKAPKLLIYDASSLESGVPSRFSGSGSGTDFTLTISSLQPEDFATYYCQQFFDYFTFGPGTKVDIKR = 4
UGX182 (antibody, human IgG1, kappa, V domains shown, also called HC:S59D, HC:V101I; S59D/V101I) VH: QVQLVQSGAEVKKPGASVKVSCKASGYTFTNHYMHWVRQAPGQGLEWMGIINPISGSTDNAQKFQGRVTMTRDTSTSTVYMELSSLRSEDTAVYYCARDIIDAFDFWGQGTMVTVSS VL: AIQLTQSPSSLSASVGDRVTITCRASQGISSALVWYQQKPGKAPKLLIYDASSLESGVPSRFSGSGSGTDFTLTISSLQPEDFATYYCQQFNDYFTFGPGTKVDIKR = 2
Burosumab (antibody, human IgG1, kappa, V domains shown, Recombinant human IgG1 kappa; also called burosumab-twza; parental burosumab) VH: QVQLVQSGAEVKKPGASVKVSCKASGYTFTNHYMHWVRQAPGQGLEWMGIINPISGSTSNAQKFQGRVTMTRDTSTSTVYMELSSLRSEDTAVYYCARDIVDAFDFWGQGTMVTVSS VL: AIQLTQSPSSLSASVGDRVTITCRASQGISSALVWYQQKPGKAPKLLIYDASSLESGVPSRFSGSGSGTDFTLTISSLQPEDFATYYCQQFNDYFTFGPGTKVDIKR = 1

Let us move to another entry and its Ratio (variant antibody KD/burosumab KD).
Q: Fill in the blank: the reported Ratio (variant antibody KD/burosumab KD) of UGX206 (antibody, human IgG1, kappa, V domains shown, also called HC:S59E, LC:Y94E; S59E/Y94E) VH: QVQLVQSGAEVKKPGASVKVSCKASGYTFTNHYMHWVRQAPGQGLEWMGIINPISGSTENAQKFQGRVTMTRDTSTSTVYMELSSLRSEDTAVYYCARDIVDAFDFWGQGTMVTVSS VL: AIQLTQSPSSLSASVGDRVTITCRASQGISSALVWYQQKPGKAPKLLIYDASSLESGVPSRFSGSGSGTDFTLTISSLQPEDFATYYCQQFNDEFTFGPGTKVDIKR is ____.
Result: 3
